Assay: Compound stability in human liver microsomes
Assay type: in vitro ADME
Settings: pH 7.4; human liver microsomes 0.5 mg protein/mL, compound 5 μM, NADPH, 37° C.; read-out: Human T1/2
In plain terms, low half-life at 5 μM, meaning strictly below 20 min, gives y, and everything else gives n.

Below are worked cases with known answers.
Cc1nc(-c2c(N)ncnc2N[C@@H](C)c2nc3cccc(C#CCO)c3c(=O)n2-c2ccccc2)no1 [Example 38] :: n
C#Cc1cccc2nc([C@H](C)Nc3ncnc(N)c3-c3noc(C)n3)n(-c3ccccc3)c(=O)c12 [Example 47] :: y
C[C@H](Nc1ncnc(N)c1-c1ncn(C)n1)c1nc2cccc(C#CCO)c2c(=O)n1-c1ccccc1 [Example 46] :: n

Continue with the next compound.
## Input Below 20 min on half-life at 5 μM? Entry CC#Cc1cccc2nc([C@H](CC)Nc3ncnc(N)c3-c3nc(C)no3)n(-c3ccccc3)c(=O)c12 [Example 14]
## Output y
